Where do these numbers come from? They come from patent US20250339409A1.

# ASSAY_NAME: Toxicokinetics in dogs after intra-articular injection: synovial fluid concentrations
# Assay type: in vivo, Beagle dogs
# CONDITIONS_USED: both sexes, Beagle, synovial fluid; dog, intra-articular, calculated; read-out: Tmax, synovial fluid (converted)
# Description: 16 Beagle dogs (8 males, 8 females) were assigned to four treatment groups to determine toxicity of BETi1 formulations following intra-articular injection. […] Quantification of BETi1 concentrations in plasma and synovial fluid was performed using a qualified liquid chromatographic triple quadrupole mass spectrometric (LC-MS/MS) method. […]
OBSERVABLE: Tmax

Recorded result, "Cn1cc(-c2cccc(O)c2Oc2ccccc2)c2cc[nH]c2c1=O" , Tmax: ~120 h
